Target: recombinant human glucokinase (beta cell isoform) (Homo sapiens)
Construct: Full-length glucokinase (beta cell isoform) was His-tagged at the N-terminus; His tag (N); made in house; host or cells: E. coli BL21(DE3), vector pBCGK
Sequence (P35557 1-465): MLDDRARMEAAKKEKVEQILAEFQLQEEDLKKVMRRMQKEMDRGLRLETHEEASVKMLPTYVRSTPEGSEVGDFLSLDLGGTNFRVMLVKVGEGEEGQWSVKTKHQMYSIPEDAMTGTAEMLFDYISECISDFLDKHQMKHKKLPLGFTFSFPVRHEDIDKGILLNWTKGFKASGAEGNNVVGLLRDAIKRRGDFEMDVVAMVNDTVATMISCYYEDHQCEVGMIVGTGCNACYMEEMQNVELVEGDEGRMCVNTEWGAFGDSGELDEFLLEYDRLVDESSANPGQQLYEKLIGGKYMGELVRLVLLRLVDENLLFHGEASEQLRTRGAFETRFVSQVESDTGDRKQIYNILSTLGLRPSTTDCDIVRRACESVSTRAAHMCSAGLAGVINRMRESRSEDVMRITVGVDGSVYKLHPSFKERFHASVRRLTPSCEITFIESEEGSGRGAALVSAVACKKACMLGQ
Assay: Assay 1: Evaluating Activator Potency and Maximum Activation at 5 mM Glucose
Assay type: biochemical
Conditions: Assay 1; 5 mM glucose; read-out: Glucokinase EC50
Method: Representative compounds of this invention were evaluated in biochemical assays (Assay 1 or Assay 2) to characterize their glucokinase activation properties. […] Beta Cell Glucokinase His-Taq Purification Conditions: A Ni-NTA (Quigan, Germantown, Md.) column (15-50 mL) was used for separation. […] The fractions were analyzed by SDS-PAGE and protein containing fractions were pooled. Concentration was measured using Bradford Assay/BSA Standard. […]
measure-name: EC50 (µM)
The figure you give is taken to be in µM; do not add the unit.

Input: Give EC50 for the following molecule: Cc1cnc(NC(=O)c2cc(Oc3cnc(C(=O)N(C)C)nc3)c3cn(C)nc3c2)cn1
Output: 3.34

----------
molecular target: recombinant human glucokinase (beta cell isoform) (Homo sapiens, UniProt P35557); construct: Full-length glucokinase (beta cell isoform) was His-tagged at the N-terminus; His tag (N); made in house; host or cells: E. coli BL21(DE3), vector pBCGK; experiment: Assay 1: Evaluating Activator Potency and Maximum Activation at 5 mM Glucose; format: biochemical; details: Assay 1; 5 mM glucose; NADH depletion at 340 nm, PK/LDH coupled; read-out: Glucokinase EC50
Please go through the items and note down their pEC50.
pEC50 field: float, defined as -log10 of concentration (mol/L).

Input: Give pEC50 for the following compound: Cc1ccc(NC(=O)c2cc(Oc3ccc(S(C)(=O)=O)cc3)c3cn(C)nc3c2)nc1
Output: 5.58

Input: Give pEC50 for the following compound: Cc1cnc(NC(=O)c2cc(Oc3cnc(C(=O)N(C)C)cn3)c3cn(C)nc3c2)cn1
Output: 5.60

Input: Give pEC50 for the following compound: Cc1cnc(NC(=O)c2cc(Oc3cnc(C(F)(F)F)cn3)c3cn(C)nc3c2)cn1
Output: 4.71

Input: Give pEC50 for the following compound: Cn1cc2c(Oc3cnc(C(F)(F)F)cn3)cc(C(=O)Nc3cnn(C)n3)cc2n1
Output: 4.79

----------
molecular target: recombinant human glucokinase (Homo sapiens, UniProt P35557); construct: Full-length glucokinase (beta cell isoform) was His-tagged at the N-terminus and purified by a Ni column followed by size exclusion chromatography as described above; His tag; made in house; host or cells: E. coli BL21(DE3), vector pBCGK; assay: Assay 2: Evaluating Activator Potency in a Matrix Assay at Multiple Glucose Concentrations; format: biochemical; conditions: Assay 2 matrix assay; 16 glucose concentrations; intrinsic EC50 = concentration affording a 50% reduction in the enzyme's Km (for glucose); read-out: Glucokinase EC50
Please go through the items and note down their pEC50.
pEC50 field: float, defined as -log10 of concentration (mol/L).

Input: Lab note: recombinant human glucokinase (Homo sapiens, UniProt P35557) assay, enter pEC50 for CCn1cc2c(Oc3ccc(S(C)(=N)=O)cc3)cc(C(=O)Nc3ccn(C)n3)cc2n1 (stereo not shown) here
Output: 5.61

Input: Lab note: recombinant human glucokinase (Homo sapiens, UniProt P35557) assay, enter pEC50 for CCOc1cnc(NC(=O)c2cc(Oc3ccc(S(N)(=O)=O)cc3)c3cn(CC)nc3c2)cn1 here
Output: 4.30

Input: Lab note: recombinant human glucokinase (Homo sapiens, UniProt P35557) assay, enter pEC50 for CCn1cc2c(Oc3cnc(C(=O)N4CCOCC4)cn3)cc(C(=O)Nc3ccc(C)cn3)cc2n1 here
Output: 5.64

Input: Lab note: recombinant human glucokinase (Homo sapiens, UniProt P35557) assay, enter pEC50 for CCn1ccc(NC(=O)c2cc(Oc3ccc(S(C)(=O)=O)cc3)c3cn(CC)nc3c2)n1 here
Output: 5.72

Input: Lab note: recombinant human glucokinase (Homo sapiens, UniProt P35557) assay, enter pEC50 for CCn1cc2c(Oc3cnc(C(=O)N4CCC4)cn3)cc(C(=O)Nc3cnc(C)cn3)cc2n1 here
Output: 6.10

Input: Lab note: recombinant human glucokinase (Homo sapiens, UniProt P35557) assay, enter pEC50 for Cc1cnc(NC(=O)c2cc(Oc3cnc(C(=O)N4CCC4)c(F)c3)c3cn(C)nc3c2)cn1 here
Output: 6.43

Input: Lab note: recombinant human glucokinase (Homo sapiens, UniProt P35557) assay, enter pEC50 for CCn1cc2c(Oc3cnc(C(=O)N4CCCC4)cn3)cc(C(=O)Nc3cnc(C)cn3)cc2n1 here
Output: 6.54

Input: Lab note: recombinant human glucokinase (Homo sapiens, UniProt P35557) assay, enter pEC50 for Cc1ccc(NC(=O)c2cc(Oc3ccc(S(C)(=O)=O)cc3C(F)(F)F)c3cn(C)nc3c2)nc1 here
Output: 6.26

Input: Lab note: recombinant human glucokinase (Homo sapiens, UniProt P35557) assay, enter pEC50 for Cn1cc2c(Oc3cnc(C(=O)N4CCC4)cn3)cc(C(=O)Nc3cnn(C)n3)cc2n1 here
Output: 4.44

Input: Lab note: recombinant human glucokinase (Homo sapiens, UniProt P35557) assay, enter pEC50 for CCn1cc2c(Oc3cnc(C(=O)N4CCC4)cn3)cc(C(=O)Nc3cnn(C)n3)cc2n1 here
Output: 4.82

Input: Lab note: recombinant human glucokinase (Homo sapiens, UniProt P35557) assay, enter pEC50 for CN(C)S(=O)(=O)c1ccc(Oc2cc(C(=O)Nc3cnn(C)n3)cc3nn(C)cc23)cc1 here
Output: 6.15

Input: Lab note: recombinant human glucokinase (Homo sapiens, UniProt P35557) assay, enter pEC50 for CCn1cc2c(Oc3cnc(C(=O)N(C)C)cn3)cc(C(=O)Nc3cnn(C)n3)cc2n1 here
Output: 4.60

Input: Lab note: recombinant human glucokinase (Homo sapiens, UniProt P35557) assay, enter pEC50 for Cn1ccc(NC(=O)c2cc(Oc3ccc(S(C)(=O)=O)nc3)c3cn(C)nc3c2)n1 here
Output: 5.89

Input: Lab note: recombinant human glucokinase (Homo sapiens, UniProt P35557) assay, enter pEC50 for CNS(=O)(=O)c1ccc(Oc2cc(C(=O)Nc3cnc(C)cn3)cc3nn(C)cc23)cc1 here
Output: 6.06

Input: Lab note: recombinant human glucokinase (Homo sapiens, UniProt P35557) assay, enter pEC50 for CCn1cc2c(Oc3ccc(S(C)(=O)=O)cc3)cc(C(=O)Nc3ccn(CC(N)=O)n3)cc2n1 here
Output: 5.83

Input: Lab note: recombinant human glucokinase (Homo sapiens, UniProt P35557) assay, enter pEC50 for Cc1cnc(NC(=O)c2cc(Oc3ccc(S(C)(=O)=O)nc3)c3cn(C)nc3c2)cn1 here
Output: 5.27
